All figures here come from paper PMC4336329.

Each entry below lists one item and its recorded hERG current change (%, negative = inhibition) at 1uM value.
Molecular target: human ether-à-go-go-related gene (hERG) potassium channel (human, UniProt Q12809)
Sequence (Q12809 whole entry, looked up): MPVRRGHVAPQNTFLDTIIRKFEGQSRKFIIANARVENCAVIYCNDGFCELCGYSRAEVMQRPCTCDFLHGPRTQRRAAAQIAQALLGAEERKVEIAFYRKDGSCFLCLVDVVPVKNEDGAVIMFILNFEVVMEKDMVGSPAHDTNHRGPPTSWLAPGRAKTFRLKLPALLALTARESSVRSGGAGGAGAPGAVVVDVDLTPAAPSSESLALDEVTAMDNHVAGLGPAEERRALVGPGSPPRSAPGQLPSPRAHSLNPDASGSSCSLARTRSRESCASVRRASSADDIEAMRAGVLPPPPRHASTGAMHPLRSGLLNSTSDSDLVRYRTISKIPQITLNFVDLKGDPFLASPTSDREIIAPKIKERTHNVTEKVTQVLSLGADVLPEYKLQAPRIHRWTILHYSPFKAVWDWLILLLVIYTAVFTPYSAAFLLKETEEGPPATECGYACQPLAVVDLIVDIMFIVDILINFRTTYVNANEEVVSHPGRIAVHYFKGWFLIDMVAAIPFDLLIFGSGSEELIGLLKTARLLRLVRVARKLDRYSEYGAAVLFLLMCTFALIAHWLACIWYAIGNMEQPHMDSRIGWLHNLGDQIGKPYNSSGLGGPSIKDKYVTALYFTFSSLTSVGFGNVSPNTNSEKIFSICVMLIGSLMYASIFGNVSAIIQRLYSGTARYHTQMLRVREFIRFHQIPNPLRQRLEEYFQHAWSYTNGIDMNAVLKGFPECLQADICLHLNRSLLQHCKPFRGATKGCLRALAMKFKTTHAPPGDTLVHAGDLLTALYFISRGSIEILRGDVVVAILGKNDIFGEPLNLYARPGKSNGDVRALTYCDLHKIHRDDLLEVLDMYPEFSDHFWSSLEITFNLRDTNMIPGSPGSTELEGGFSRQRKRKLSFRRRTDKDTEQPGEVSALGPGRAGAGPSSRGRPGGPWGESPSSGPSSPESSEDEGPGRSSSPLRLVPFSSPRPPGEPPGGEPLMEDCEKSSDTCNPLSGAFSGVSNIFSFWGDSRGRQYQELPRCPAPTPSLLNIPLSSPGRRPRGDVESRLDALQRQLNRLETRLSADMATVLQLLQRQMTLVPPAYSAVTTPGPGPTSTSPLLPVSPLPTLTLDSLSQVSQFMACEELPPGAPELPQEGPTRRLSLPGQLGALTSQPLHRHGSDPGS
Experiment: primary screen, population patch clamp on CHO cells stably expressing hERG; higher = less effect of the substance
About 2,200 (0.71%) of roughly 310,000 compounds showed an effect of 50% or more. Effects have a minus sign here. The list comes from a sample in which strong results are over-represented; it also holds close analogues and randomly drawn compounds.
measured_quantity: hERG current change (%, negative = inhibition) at 1uM (%)

INSERT INTO results (compound, units_symbol, endpoint_result) VALUES
  ('Cn1c(=O)c2c(nc(SCCN3CCCCC3)n2Cc2ccccc2)n(C)c1=O', '%', -66),
  ('COc1ccc(C(=O)C(OC(=O)c2ccccc2)c2ccccc2)cc1 (stereo not shown)', '%', 2.14),
  ('O=C1C=C(c2ccc3ncccc3c2)C[C@@H](c2ccc3c(c2)OCO3)C1', '%', 9.3),
  ('CCCCCC(O)(CCN1CCCCC1)c1ccc(OCC)cc1.Cl (stereo not shown)', '%', -82),
  ('O=C(c1ccc2c(c1)OCCO2)C1CCN(C(=O)c2ccc(F)c(F)c2)CC1', '%', 2.71),
  ('Cc1sc2ncnc(N3CCC(C(=O)N(C)CC(=O)Nc4ccccc4Br)CC3)c2c1C', '%', -8.93),
  ('CCOc1cc(/C=N/NC(=O)c2cccnc2)cc(Br)c1OCC(N)=O', '%', -69.4),
  ('Cc1cnc(CN(C)C(=O)CC2C(=O)NCCN2Cc2cccc(F)c2F)[nH]1 (stereo not shown)', '%', 11.2),
  ('Cn1c(=O)c2c(nc(SCCN3CCCCC3)n2Cc2ccc(Cl)cc2)n(C)c1=O', '%', -48.9),
  ('Cc1onc(-c2ccccc2Cl)c1C(=O)OCc1nnc(-c2ccccc2)o1', '%', 3.84),
  ('Cc1ccc(OCCOCCN2CCN(C)CC2)c(C(C)(C)C)c1.O=C(O)C(=O)O', '%', 13.2),
  ('O=C(Oc1cccc([N+](=O)[O-])c1)C1CCN(C(=O)c2ccc(F)cc2)CC1', '%', -3.31),
  ('CCNc1nc(N2CCCC2)nc(N2CCCC2)n1', '%', 0.687),
  ('COC(=O)C(Cc1ccc(OC(=O)c2ccc(C(F)(F)F)cc2)cc1)N1Cc2ccccc2C1=O (stereo not shown)', '%', 13.8),
  ('CC(C)[C@H](NC(=O)CCn1nnc2ccccc2c1=O)C(=O)O', '%', 17.3),
  ('CCOC(=O)N1CCN(C(=O)C2CCN(C(=O)c3ccc([N+](=O)[O-])cc3)CC2)CC1', '%', -26.9);

---

Target: human ether-à-go-go-related gene (hERG) potassium channel (human)
Assay: primary screen, population patch clamp on CHO cells stably expressing hERG; higher = less effect of the substance
In all, about 310,000 compounds went through this assay and about 2,200 (0.71%) showed an effect of 50% or more. The effect is printed as a negative number. The sample holds strong results, similar compounds and a random draw of the others, so the mix is not that of the screen.
Entries annotated with measured hERG current change (%, negative = inhibition) at 1uM
measured_quantity: hERG current change (%, negative = inhibition) at 1uM (%)

INSERT INTO results (molecule, measured_on, units_symbol, endpoint_result) VALUES
  ('Cc1ccc(NC(=O)CSc2ccc3nnc(-c4ccccn4)n3n2)cc1', 'human ether-à-go-go-related gene (hERG) potassium channel (human)', '%', 5.84),
  ('C=CCc1ccc(OCC(O)CN2CCN(Cc3ccc(Cl)cc3)CC2)c(OC)c1.Cl (centres unmarked)', 'human ether-à-go-go-related gene (hERG) potassium channel (human)', '%', -55.3),
  ('Cn1cc(CN2CCc3c([nH]c4ccccc34)C2C(C)(C)C)cn1 (centres unmarked)', 'human ether-à-go-go-related gene (hERG) potassium channel (human)', '%', -3.25),
  ('COc1ccc(CN2C3CCCC2CC(NC(=O)/C=C/c2ccccc2)C3)cc1 (centres unmarked)', 'human ether-à-go-go-related gene (hERG) potassium channel (human)', '%', -84.2),
  ('COc1ccc(NC(=O)CN2CCN(CC(=O)Nc3ccc(OC)cc3)CC2)cc1', 'human ether-à-go-go-related gene (hERG) potassium channel (human)', '%', -85.6),
  ('Cc1ccc(C2=NN(CCC(=O)NCCCN3CCOCC3)C(=O)CC2)cc1', 'human ether-à-go-go-related gene (hERG) potassium channel (human)', '%', -9.94),
  ('COc1ccc2[nH]c(CN3CCN(CC=C(C)C)C(CCO)C3)c(C)c2c1 (centres unmarked)', 'human ether-à-go-go-related gene (hERG) potassium channel (human)', '%', 10.7),
  ('C=CCc1ccc(OCC(O)CN2CCN(c3ccccc3OC)CC2)c(OC)c1.Cl (centres unmarked)', 'human ether-à-go-go-related gene (hERG) potassium channel (human)', '%', 8.86),
  ('COc1ccc(NC(=O)CN2CCCC2)cc1', 'human ether-à-go-go-related gene (hERG) potassium channel (human)', '%', 14.6),
  ('CC(Nc1ccc(F)cc1)=[N+](C)CCNS(=O)(=O)c1ccc(Cl)cc1.[I-]', 'human ether-à-go-go-related gene (hERG) potassium channel (human)', '%', -45.1),
  ('COc1cccc(CN2CCN(Cc3[nH]c4ccccc4c3C)CC2CCO)c1 (centres unmarked)', 'human ether-à-go-go-related gene (hERG) potassium channel (human)', '%', -11.2),
  ('CCc1ccc(-n2nnnc2SCC(=O)Nc2ccc(NC(C)=O)cc2)cc1', 'human ether-à-go-go-related gene (hERG) potassium channel (human)', '%', 20.4),
  ('CC(=O)Oc1ccc2c3c(c(=O)oc2c1C)CCCC3', 'human ether-à-go-go-related gene (hERG) potassium channel (human)', '%', 15.5),
  ('Cc1ccccc1NC(=O)CSc1ccc2nnc(-c3ccccn3)n2n1', 'human ether-à-go-go-related gene (hERG) potassium channel (human)', '%', 7.85);

---

Target: human ether-à-go-go-related gene (hERG) potassium channel (human, UniProt Q12809)
Test: primary screen, population patch clamp on CHO cells stably expressing hERG; higher = less effect of the substance
Screen size: about 310,000 compounds; about 2,200 (0.71%) showed an effect of 50% or more. Effects have a minus sign here. This excerpt belongs to a sample that is enriched for strong results.
measured_quantity: hERG current change (%, negative = inhibition) at 1uM (%)

INSERT INTO results (compound, measured_on, endpoint_result) VALUES
  ('Cc1ccc([N+](=O)[O-])c(OCCCN2CCC(Cc3ccccc3)CC2)c1.O=C(O)C(=O)O', 'human ether-à-go-go-related gene (hERG) potassium channel (human, UniProt Q12809)', -95.8),
  ('O=C(O)C(=O)O.O=[N+]([O-])c1cccc(OCCN2CCC(Cc3ccccc3)CC2)c1', 'human ether-à-go-go-related gene (hERG) potassium channel (human, UniProt Q12809)', -23.6),
  ('Brc1ccc(CN2C3=NCCCN3c3ccccc32)cc1.Cl', 'human ether-à-go-go-related gene (hERG) potassium channel (human, UniProt Q12809)', -55.6),
  ('COc1cccc(C(=O)C2CCCN(Cc3ccc(OC)c(Cn4cncn4)c3)C2)c1 (stereo not shown)', 'human ether-à-go-go-related gene (hERG) potassium channel (human, UniProt Q12809)', -20.2),
  ('CCN(CC)CCn1c(NS(=O)(=O)c2ccc(C)cc2)nc2ccccc21', 'human ether-à-go-go-related gene (hERG) potassium channel (human, UniProt Q12809)', -17.8),
  ('Cc1cc(OCCN2CCC(Cc3ccccc3)CC2)ccc1[N+](=O)[O-].O=C(O)C(=O)O', 'human ether-à-go-go-related gene (hERG) potassium channel (human, UniProt Q12809)', -53.5),
  ('Cc1cccn2c(=O)nc(SCC(=O)N3CCC(C)CC3)nc12', 'human ether-à-go-go-related gene (hERG) potassium channel (human, UniProt Q12809)', 2.05),
  ('O=c1c2c3c(sc2nc2n1CCCCC2)CCC3', 'human ether-à-go-go-related gene (hERG) potassium channel (human, UniProt Q12809)', 10.9),
  ('CC1CN(CC(=O)Nc2ccc([N+](=O)[O-])cc2Br)CC(C)O1 (stereo not shown)', 'human ether-à-go-go-related gene (hERG) potassium channel (human, UniProt Q12809)', 4.18),
  ('O=C(NCc1ccc(Cl)cc1Cl)C(=O)N1CCCCC1', 'human ether-à-go-go-related gene (hERG) potassium channel (human, UniProt Q12809)', 7),
  ('c1ccc(CN2C3=NCCN3c3ccccc32)cc1', 'human ether-à-go-go-related gene (hERG) potassium channel (human, UniProt Q12809)', 2.38),
  ('Cc1ccc(-n2cccc2/C=C2/C(=N)N3C(=NC2=O)SN=C3S(C)(=O)=O)cc1Cl', 'human ether-à-go-go-related gene (hERG) potassium channel (human, UniProt Q12809)', 11.1),
  ('O=C(CSc1nc(=O)n2ccccc2n1)N1CCC(Cc2ccccc2)CC1', 'human ether-à-go-go-related gene (hERG) potassium channel (human, UniProt Q12809)', -27.4),
  ('COc1cc(CN2CCCC(C(=O)c3ccc(SC)cc3)C2)cc(Cl)c1O (stereo not shown)', 'human ether-à-go-go-related gene (hERG) potassium channel (human, UniProt Q12809)', -3.13),
  ('COc1ccc(NC(=O)CCCn2cc([N+](=O)[O-])cn2)cc1', 'human ether-à-go-go-related gene (hERG) potassium channel (human, UniProt Q12809)', 1.91),
  ('COc1ccc(NC(=O)CS(=O)(=O)c2ccc(F)cc2)cc1', 'human ether-à-go-go-related gene (hERG) potassium channel (human, UniProt Q12809)', 10.6),
  ('COc1ccc(CN2CCCC(C(=O)c3ccc(Cl)cc3)C2)cc1Cn1cncn1 (stereo not shown)', 'human ether-à-go-go-related gene (hERG) potassium channel (human, UniProt Q12809)', -59.9),
  ('Cl.Clc1ccc(CN2C3=NCCCN3c3ccccc32)cc1', 'human ether-à-go-go-related gene (hERG) potassium channel (human, UniProt Q12809)', -54.3),
  ('Cl.O=C(O)CN1C2=NCCCN2c2ccccc21', 'human ether-à-go-go-related gene (hERG) potassium channel (human, UniProt Q12809)', 15.8);
